meta.source: PubChem BioAssay (NCI)

- assay.notes: NCI Yeast Anticancer Drug Screen. Data for the cln2 rad14 strain (AID 165)
- setup.conditions: S. cerevisiae cln2 rad14 strain, at 5.0 µM (retest, dose inferred, filed as 0.5), hits give high values
About 79,000 compounds went through this panel and 15% of them were active in at least one assay; those are over-represented in the sample as a whole.
Please mark MET if the recorded growth inhibition is equal to or greater than 10%, and NOT MET if it falls below.

molecule: O=C(NCCCNCCCNC(=O)c1cc(-c2ccccc2)nc2ccccc12)c1cc(-c2ccccc2)nc2ccccc12
qualitative.label: MET
//
molecule: C[C@@H]1C[C@H]2[C@@H]3CCC4=CC(=O)C=C[C@]4(C)[C@@]3(Cl)[C@@H](Cl)C[C@]2(C)[C@@]1(O)C(=O)COP(=O)(O)O
qualitative.label: MET
//
molecule: C(=C\c1ccccc1)/COc1ccccc1C(N1CCOCC1)n1nc2ccccc2n1 (stereo not given)
qualitative.label: MET
//
molecule: CC(C(=O)N1C(=O)N(C(=O)[C@H](C)C(O)c2ccccc2)[C@H](c2ccccc2)[C@H]1c1ccccc1)[C@@H](O)c1ccccc1 (stereo not given in full)
qualitative.label: MET
//
molecule: CCOC(=O)[C@H]1Nc2ccccc2C2c3ccccc3CC21 (stereo not given in full)
qualitative.label: MET
//
molecule: CCCCCCCCC/C=C/C=C/C(=O)NCC(=O)NC1C(O)C(O)C(Nc2ncnc3nc[nH]c23)OC1C(O)CO (stereo not given)
qualitative.label: NOT MET
//
molecule: COc1ccc(/C=C/C(=O)C(C)(C)Br)cc1
qualitative.label: MET
//
molecule: O=[N+]([O-])c1cc(CCl)ccc1CCl
qualitative.label: MET
//
molecule: CC[n+]1ccc2c(C)c3[nH]c4ccc(O)cc4c3c(C)c2c1
qualitative.label: NOT MET
//
molecule: COc1cc(/C=C2\CCc3ccccc3C2=O)cc(OC)c1OC
qualitative.label: NOT MET
//
molecule: CC/C(=C(\c1ccccc1)c1ccc(OCCN(C)C)cc1)c1ccccc1
qualitative.label: MET
//
molecule: Nc1ccn(C2OC(CO)C3[O][Sn]([c]4ccccc4)([c]4ccccc4)[O]C32)c(=O)n1 (stereo not given)
qualitative.label: NOT MET
//
molecule: Cc1nn(-c2cc(Cl)ccc2[N+](=O)[O-])c(C)c1Cl
qualitative.label: MET
//
molecule: CC(=O)Nc1ccc(/C=C(\C#N)c2ccc(C)cc2)cc1
qualitative.label: MET
//
molecule: COc1ccccc1C(=O)OCC1CCCN2CCCCC12 (stereo not given)
qualitative.label: NOT MET
//
molecule: Cc1ccc(Cl)c2[nH]c(-c3ccccc3)cc(=O)c12
qualitative.label: NOT MET
//
molecule: CC1(C)[C@@H]2CC[C@]1(C)[C@H](OC(=O)CSC#N)C2
qualitative.label: MET
//
molecule: O=C([O][Sn]([O]C(=O)c1ccccc1)([c]1ccccc1)[c]1ccccc1)c1ccccc1
qualitative.label: NOT MET
//
molecule: COP(=O)(OC)/C(=C\C1=CN(C(c2ccccc2)(c2ccccc2)c2ccccc2)CN1)NC=O
qualitative.label: NOT MET
//
molecule: O=C1c2ccccc2C(=O)c2c(NC3CCCCC3)ccc(Nc3ccc(S(=O)(=O)O)cc3)c21
qualitative.label: NOT MET
